Where do these numbers come from? They come from paper PMC6193938.

# Test system: panel of human cell lines
# PROCEDURE_TEXT: In vitro proliferation assay, Cell Titer Glo, two doubling times, 298 cell lines
# Format: cell-based
# EXPERIMENTAL_CONTEXT: Homo sapiens, Hs 839.T, skin; read-out: ABS_IC50_VALUE
MEASURE_NAME: IC50

The measured IC50 that `O=c1[nH]ccc2cc(F)c(NS(=O)(=O)c3ccc(N4CC[C@@H](O)C4)s3)cc12` showed for panel of human cell lines is > 20 µM

----------
# Tested on: panel of human cell lines
# PROCEDURE_TEXT: In vitro proliferation assay, Cell Titer Glo, two doubling times, 298 cell lines
# Type: cell-based
# EXPERIMENTAL_CONTEXT: Homo sapiens, SNU-182, SNU-182 (liver, hepatocellular carcinoma); read-out: ABS_IC50_VALUE
MEASURE_NAME: pIC50
To interpret pIC50, take it as minus log10 of a concentration measured in moles per litre.

The measured pIC50 that `O=c1[nH]ccc2cc(F)c(NS(=O)(=O)c3ccc(N4CC[C@@H](O)C4)s3)cc12` showed for panel of human cell lines is 4.68

----------
# TARGET_ENTITY: UniProt:Q9H903
# Sequence (Q9H903 46-347): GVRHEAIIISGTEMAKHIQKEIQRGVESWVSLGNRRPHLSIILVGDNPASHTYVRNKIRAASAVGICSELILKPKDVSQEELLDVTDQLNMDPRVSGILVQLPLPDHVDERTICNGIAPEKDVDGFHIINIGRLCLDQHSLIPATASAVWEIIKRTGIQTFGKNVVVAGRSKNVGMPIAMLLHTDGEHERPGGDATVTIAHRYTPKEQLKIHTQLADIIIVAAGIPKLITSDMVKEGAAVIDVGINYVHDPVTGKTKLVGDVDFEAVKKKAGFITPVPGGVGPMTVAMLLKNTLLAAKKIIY
MEASURE_NAME: pIC50
To interpret pIC50, take it as minus log10 of a concentration measured in moles per litre.

`Nc1nc2[nH]cc(CCCc3ccc(C(=O)N[C@@H](CCC(=O)O)C(=O)O)cc3)c2c(=O)[nH]1` has a reported pIC50 of 5.07

----------
# Tested on: panel of human cell lines
# PROCEDURE_TEXT: In vitro proliferation assay, Cell Titer Glo, two doubling times, 298 cell lines
# Type: cell-based
# EXPERIMENTAL_CONTEXT: Homo sapiens, NCI-H660, NCI-H660, prostate; read-out: ABS_IC50_VALUE
MEASURE_NAME: pIC50
To interpret pIC50, take it as minus log10 of a concentration measured in moles per litre.

The measured pIC50 that `O=c1[nH]ccc2cc(F)c(NS(=O)(=O)c3ccc(N4CC[C@@H](O)C4)s3)cc12` showed for panel of human cell lines is 5.15

----------
# Tested on: panel of human cell lines
# PROCEDURE_TEXT: In vitro proliferation assay, Cell Titer Glo, two doubling times, 298 cell lines
# Assay type: cell-based
# EXPERIMENTAL_CONTEXT: Homo sapiens, SK-ES1, SK-ES-1, bone; read-out: ABS_IC50_VALUE
# Protocol: Cell Titer Glo measures ATP, thus the IC50s represent both the effect on purine production and cell proliferation, which are related. […] Cells were cultured using recommended culture conditions unless noted otherwise (Supplemental Table 3). Cells were plated, dosed with compound and incubated at 37 °C for approximately 2 doubling times as determined for each cell line. […]
MEASURE_NAME: IC50

`O=c1[nH]ccc2cc(F)c(NS(=O)(=O)c3ccc(N4CC[C@@H](O)C4)s3)cc12` has a reported IC50 of > 20 µM

----------
# TARGET_ENTITY: SHMT1 (Homo sapiens)
# Sequence (P34896 1-483): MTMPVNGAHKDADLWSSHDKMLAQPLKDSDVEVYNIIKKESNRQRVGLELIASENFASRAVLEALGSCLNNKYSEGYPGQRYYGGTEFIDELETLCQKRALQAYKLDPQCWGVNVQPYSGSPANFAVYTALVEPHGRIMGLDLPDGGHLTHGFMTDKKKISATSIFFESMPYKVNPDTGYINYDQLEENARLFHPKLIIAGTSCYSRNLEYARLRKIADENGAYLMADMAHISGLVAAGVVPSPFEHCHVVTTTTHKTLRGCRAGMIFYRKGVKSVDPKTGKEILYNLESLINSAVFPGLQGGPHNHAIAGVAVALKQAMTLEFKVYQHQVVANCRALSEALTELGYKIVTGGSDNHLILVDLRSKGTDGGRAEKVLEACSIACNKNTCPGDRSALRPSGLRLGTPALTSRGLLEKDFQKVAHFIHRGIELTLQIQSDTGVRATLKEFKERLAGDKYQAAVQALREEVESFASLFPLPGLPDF
MEASURE_NAME: pIC50
To interpret pIC50, take it as minus log10 of a concentration measured in moles per litre.

`Nc1nc2[nH]cc(CCCc3ccc(C(=O)N[C@@H](CCC(=O)O)C(=O)O)cc3)c2c(=O)[nH]1` has a reported pIC50 of 5.00

----------
# System: panel of human cell lines
# PROCEDURE_TEXT: In vitro proliferation assay, Cell Titer Glo, two doubling times, 298 cell lines
# Format: cell-based
# EXPERIMENTAL_CONTEXT: Homo sapiens, TOV21G, TOV-21G (ovary, clear cell carcinoma); read-out: ABS_IC50_VALUE
MEASURE_NAME: IC50

`O=c1[nH]ccc2cc(F)c(NS(=O)(=O)c3ccc(N4CC[C@@H](O)C4)s3)cc12` has a reported IC50 of > 20 µM

----------
MEASURE_NAME: pIC50
To interpret pIC50, take it as minus log10 of a concentration measured in moles per litre.

The measured pIC50 that `Nc1nc2[nH]cc(CCCc3ccc(C(=O)N[C@@H](CCC(=O)O)C(=O)O)cc3)c2c(=O)[nH]1` showed for ATIC (AICARFT) (Homo sapiens) is 5.04

----------
# System: panel of human cell lines
# PROCEDURE_TEXT: In vitro proliferation assay, Cell Titer Glo, two doubling times, 298 cell lines
# Format: cell-based
# EXPERIMENTAL_CONTEXT: Homo sapiens, NCI-H1975, NCI-H1975, lung; read-out: ABS_IC50_VALUE
MEASURE_NAME: pIC50
To interpret pIC50, take it as minus log10 of a concentration measured in moles per litre.

`O=c1[nH]ccc2cc(F)c(NS(=O)(=O)c3ccc(N4CC[C@@H](O)C4)s3)cc12` has a reported pIC50 of 5.67
